Listed below are molecules with pKi for 5-hydroxytryptamine receptor 1B (Rattus norvegicus), each taken from published literature.
As a rule, pKi stands for the negative log10 of the concentration, concentration in M.

Example molecules with recorded pKi:
{"Molecule": "CC(C)CNCC(O)COc1cccc2ccccc12 (stereo not given)", "System Name": "5-hydroxytryptamine receptor 1B (Rattus norvegicus)", "Assay Value": 7.25}
{"Molecule": "c1ccc2c(c1)CC(N1CCN(c3cccc4c3OCCO4)CC1)C2", "System Name": "5-hydroxytryptamine receptor 1B (Rattus norvegicus)", "Assay Value": 5.76}
{"Molecule": "COc1cc2nc(N3CCN(C(=O)c4ccco4)CC3)nc(N)c2cc1OC", "System Name": "5-hydroxytryptamine receptor 1B (Rattus norvegicus)", "Assay Value": 6.54}
{"Molecule": "CN(C)CCON=C(C=Cc1ccc(O)cc1)c1ccccc1F", "System Name": "5-hydroxytryptamine receptor 1B (Rattus norvegicus)", "Assay Value": 6.04}
{"Molecule": "CN1CCN(c2nc3cc(C(F)(F)F)ccc3n3cccc23)CC1", "System Name": "5-hydroxytryptamine receptor 1B (Rattus norvegicus)", "Assay Value": 7.49}

Please turn your attention to the following entry.
Problem: Value wanted: pKi (5-hydroxytryptamine receptor 1B (Rattus norvegicus)) of entry COc1ccccc1OCCNCC(O)c1ccc(C)c(S(N)(=O)=O)c1 (stereo not given)
Result: 5.89

----------
Listed below are molecules with pKi for 5-hydroxytryptamine receptor 1B (Rattus norvegicus), each taken from published literature.
As a rule, pKi stands for the negative log10 of the concentration, concentration in M.

{"Molecule": "c1ccc2c(c1)CCC2CCN1CCN(c2cccc3c2OCCO3)CC1 (stereo unspecified)", "pKi": 6.38}
{"Molecule": "CSc1ccc2c(c1)C(N1CCN(C)CC1)Cc1ccccc1S2 (stereo unspecified)", "pKi": 7.02}

Please turn your attention to the following entry.
Problem: Value wanted: pKi (5-hydroxytryptamine receptor 1B (Rattus norvegicus)) of entry CC(C)(C)NCC(O)CSc1nc(-c2ccc(C(N)=O)s2)cs1 (stereo unspecified)
Result: 7.97

----------
Listed below are molecules with pKi for 5-hydroxytryptamine receptor 1B (Rattus norvegicus, UniProt P28564), each taken from published literature.
pKi: −log10 of the molar value.

{"Molecule": "CCN1CCCC1CNC(=O)c1cc(S(=O)(=O)CC)c(N)cc1OC (stereo not drawn)", "Assay Value": "< 5.00"}
{"Molecule": "N=C(N)NC(=O)c1nc(Cl)c(N2CCCCCC2)nc1N", "Assay Value": "< 5.00"}

Please turn your attention to the following entry.
Problem: Tell me the measured pKi of `COCCc1ccc(OC[C@H](O)CNC(C)C)cc1` , please.
Result: < 5.00
